method: ATG_NRF2_ARE_CIS: Attagene CIS-FACTORIAL HepG2 Assay for human Nuclear Factor Erythroid 2 Related Factor 2 (NFR2) response to Antioxidant Response Elements (ARE) (AID 2282992)
test-settings: HepG2 Attagene ARE/NRF2 reporter, transcription factor activity; actives raise or lower the signal
The source made the active and inactive calls. The calls were made as follows: active = hit-call score of the fitted dose curve at least 0.9, where 1 is the maximum; inactive = score below 0.9.
The reply should name one outcome from active, inactive

O=CN1CCOCC1 = inactive
OCCc1ccccc1 = inactive
O=C(Nc1ccc([N+](=O)[O-])cc1)Nc1ccc([N+](=O)[O-])cc1 (tested in a mixture with another compound) = inactive
COc1ccc(COC(C)=O)cc1 = inactive
CCCCCCCCCCCC(=O)OCC(O)CO (configuration not stated) = active
Cc1cccc(Nc2ccccc2)c1 = active
CN1CCOCC1 = inactive
C/C=C(\C)C(=O)OCCc1ccccc1 = inactive
C=CCOC(=O)CCCCCC = inactive
CCCC(C)=O = inactive

Query: recorded result category for Nc1c(Cl)cc(Cl)cc1[N+](=O)[O-] in this test
active

Query: recorded result category for CC(C)(C)c1ccc(C(=O)O)cc1 in this test
inactive

Query: recorded result category for O=C1c2ccccc2C(=O)c2c(O)ccc(O)c21 in this test
active

Query: recorded result category for O=C(O)CCCCCCCCCCCC(=O)O in this test
inactive

Query: recorded result category for OCc1ccc(Cl)cc1Cl in this test
inactive

Query: recorded result category for CC1CCC(C(C)C)C(O)C1 (configuration not stated) in this test
inactive

Query: recorded result category for CC(=O)O[C@@H]1C[C@@H]2CC[C@@]1(C)C2(C)C in this test
inactive

* * *

method: ATG_SREBP_CIS: Attagene CIS-FACTORIAL HepG2 Assay for human Sterol Regulatory Element Binding (SREBP) (AID 2282962)
test-settings: HepG2 Attagene cis-factorial SREBP reporter, mRNA; actives raise or lower the signal
Calls of active or inactive are those of the source. How the source made its calls: active means hit-call score of the fitted dose curve at least 0.9, where 1 is the maximum; inactive means score below 0.9.
The reply should name one outcome from active, inactive

Completed entries (count: 5):
CC1(C)COCN1 = inactive
CC1=CC[C@@]23C[C@@H]1C(C)(C)[C@@H]2CC[C@H]3C = inactive
CC=Cc1ccc(OC)c(OC)c1 = inactive
c1ccc(CN(Cc2ccccc2)Cc2ccccc2)cc1 = inactive
OCCc1ccccc1 = inactive

Query: recorded result category for CC(C)=CCCC(C)CC(=O)O (stereo not given) in this test
inactive

Query: recorded result category for O=C(Nc1ccc([N+](=O)[O-])cc1)Nc1ccc([N+](=O)[O-])cc1 (tested in a mixture with another compound) in this test
inactive

Query: recorded result category for C=C(C)C(=O)OCCOCCOCCOCCOC(=O)C(=C)C in this test
inactive

* * *

method: ATG_ISRE_CIS: Attagene CIS-FACTORIAL HepG2 Assay for human Interferon Regulatory Factor 1 (IRF1) binding to an Interferon-Stimulated Response Element (ISRE) (AID 2282948)
test-settings: HepG2 ISRE cis-reporter (Attagene), mRNA transcription readout; actives raise or lower the signal
Calls of active or inactive are those of the source. Rule for the calls: active = hit-call score of the fitted dose curve at least 0.9, where 1 is the maximum; inactive = score below 0.9.
The reply should name one outcome from active, inactive

CCOC(=O)CC(C)O (stereo not given) = inactive
COc1ccccc1[N+](=O)[O-] = inactive
Cc1c(C2(c3cc(Br)c(O)c(Br)c3C)OS(=O)(=O)c3ccccc32)cc(Br)c(O)c1Br = inactive
[O-]n1ccccc1=S.[O-]n1ccccc1=S.[Zn+2] = active

Query: recorded result category for CCCCSCCCC in this test
inactive
